Test system: CP286
Test: qHTS profiling for inhibitors of Plasmodium falciparum proliferation (AID 504749); also: nearly all actives have a fitted effect of over 60% in size
Conditions: P. falciparum in erythrocytes, SYBR Green DNA, 72 h; series mostly up to 28.7 µM
Results filed as inconclusive are left out. Active and inactive are the calls of the source. Calls follow the shape of the dose curve; as a rule, active = well fitted inhibition curve with a large enough effect; inconclusive = small, poorly fitted or top-dose-only effect; inactive = flat fitted curve, though single readings scatter.
Mark one answer only. Choices: active, inactive

The examples below pair each entry with its known result.
Molecule	Group Label
CC(=O)OCC(=O)[C@H]1CC[C@H]2[C@@H]3CCC4=CC(=O)CC[C@]4(C)[C@H]3CC[C@]12C	inactive
CCCCCCCCCCCCSCCOCCO	inactive

Kindly provide the recorded test outcome for the following molecule: `c1ccc(CC2=NCCN2)cc1`
inactive

Please share the test call associated with `Nc1ccc(S(=O)(=O)Nc2cnc3ccccc3n2)cc1` .
inactive

Kindly provide the recorded test outcome for the following molecule: `Nc1nc(-c2ccccc2)c(Br)c(=O)[nH]1`
inactive

Tell me the recorded outcome of this test for `NCCNC(=O)c1ccc(Cl)cn1` .
inactive

Test call, this molecule: `NC(N)=NN=C(/C=C/c1ccc([N+](=O)[O-])o1)/C=C/c1ccc([N+](=O)[O-])o1`
active

// outcome(item) with item = `O=c1[nH]c(=O)n([C@H]2C[C@H](O)[C@@H](CO)O2)cc1F`
inactive

Could you check what this test reported for `N/C(=N\N=C\c1ccc(Cl)cc1)N/N=C/c1ccc(Cl)cc1` ?
active

----------
System: Zika virus NS2B-NS3 protease
Experiment: Primary screen GU AMC qHTS for Zika virus inhibitors (AID 1347154); also: nearly all actives have a fitted effect of over 70% in size
Conditions: Zika NS2B-NS3 unlinked protease, AMC fluorogenic substrate; series mostly up to 54.1 µM
Results filed as inconclusive are left out. Activity calls are given as the source filed them. Calls follow the shape of the dose curve; as a rule, active = well fitted inhibition curve with a large enough effect; inconclusive = small, poorly fitted or top-dose-only effect; inactive = flat fitted curve, though single readings scatter.
I would appreciate it if you answered using one of these outcomes: true (1) (active), false (0) (inactive)

Compound	Group Label
CC[C@]12CCCN3CCc4c(n(c5ccccc45)C(=O)C1)[C@@H]32	false (0)
CCN(CC)CCOC(=O)C(Cc1cccc2ccccc12)CC1CCCO1 (stereo not given)	false (0)
Nc1nc(N)c(-c2ccccc2)s1	false (0)
Nc1nc(-c2ccccc2)c(Br)c(=O)[nH]1	false (0)
O=C(NC1CCN(CCc2c[nH]c3ccccc23)CC1)c1ccccc1	false (0)

Hi, sorry to bother you, what did the test record for `C#C[C@]1(O)CC[C@H]2[C@@H]3CCc4cc(OC)ccc4[C@H]3CC[C@@]21C` ?
false (0)

Kindly provide the recorded test outcome for the following compound: `COc1ccc(C(Cl)=C(c2ccc(OC)cc2)c2ccc(OC)cc2)cc1`
false (0)

Dear all, I need the recorded test outcome for `c1ccc(-c2nc[nH]c2-c2ccccc2)cc1` , thank you.
false (0)

# lookup: test call for `CCN(CC)CCOC(=O)C1(c2ccccc2)CCCC1`
false (0)

Kindly provide the recorded test outcome for the following compound: `CCCCCN=C(N)N/N=C/c1c[nH]c2ccc(OC)cc12`
false (0)

What did this assay record as the result for `N#CCC(=O)NN` ?
false (0)

Could you check what this test reported for `Oc1ccccc1C=NCc1ccccc1` ?
false (0)

Could you kindly confirm the outcome this assay logged for `CCOCCn1c(N2CCCN(C)CC2)nc2ccccc21` ?
false (0)

Write down the call the test reported for this compound. Item: `Oc1c(Cl)cc(Cl)c(Cl)c1Cc1c(O)c(Cl)cc(Cl)c1Cl`
true (1)

Recorded test outcome, item `CC(C)Cc1ccc(CC(=O)O)cc1`
false (0)

For `CC(C)Nc1cccnc1N1CCN(C(=O)c2cc3cc(NS(C)(=O)=O)ccc3[nH]2)CC1` , which call appears in the assay record?
false (0)

Would you mind telling me which call this test gave `COc1ccc(-c2cc(C(F)F)nn2-c2ccc(S(N)(=O)=O)cc2)cc1F` ?
false (0)

I'd appreciate the recorded outcome for `COc1ccc(C(=O)c2ccccc2O)c(O)c1` from this test.
false (0)

----------
Experiment: qHTS of pediatric cancer cell lines to identify multiple opportunities for drug repurposing: Primary screen for NB1643 cells (AID 1347099); also: nearly all actives have a fitted effect of over 50% in size
Conditions: NB1643 neuroblastoma viability, CellTiter-Glo luminescence, 48 h; series mostly up to 46 µM
Results filed as inconclusive are left out. Active and inactive are the calls of the source. Calls follow the shape of the dose curve; as a rule, active = well fitted cell-killing curve with a large enough effect; inconclusive = small, poorly fitted or top-dose-only effect; inactive = no such curve, though single readings can be large or run the other way.
Pick one: yes (active), no (inactive)

Completed entries (count: 10):
Compound	Group Label
C=CCN1CCc2nc(N)sc2CC1	no
CC1=C(C(=O)O)N2C(=O)[C@@H](NC(=O)[C@H](N)c3ccccc3)[C@H]2SC1	no
CC(C)(C)NC[C@H](O)COc1nsnc1N1CCOCC1	no
CC(=O)OCC1=C(C(=O)O)N2C(=O)[C@@H](NC(=O)CSc3ccncc3)[C@H]2SC1	no
CNCCc1ccccn1	no
CC(=O)Nc1ncc([N+](=O)[O-])s1	no
O=C(O)P(=O)(O)O	no
CC(C(=O)O)c1cccc(Oc2ccccc2)c1 (stereo not drawn)	no
Cc1cc(NS(=O)(=O)c2ccc(N)cc2)nc(C)n1	no
NC(=O)c1ccccc1O	no

Field: outcome | Entry: `CC(C)Cn1cnc2c1c(=O)n(C)c(=O)n2C`
no

Tell me the assay call for `CCCCCCCC/C=C\CCCCCCCCN` please.
no

Recorded test outcome, item `O=C(O)c1ccc(S(=O)(=O)N(Cl)Cl)cc1`
no

What did the test return for `NS(=O)(=O)Cc1noc2ccccc12` ?
no

For this compound, state the assay outcome: `C[C@@]12C(=O)OC(=O)[C@]1(C)C1CCC2O1`
yes

Would you mind telling me which call this test gave `C=C[C@H]1CN2CC[C@H]1C[C@@H]2[C@@H](O)c1ccnc2ccc(OC)cc12` ?
no

Call for entry `COc1cc(C(=O)N2CCCCCCC2)cc(OC)c1OC` :
no

I'd appreciate the recorded outcome for `CC(=O)NCCCCCC(=O)O` from this test.
no

----------
Assay: Drug repurposing screens with cells derived from glioblastoma tumor samples (AID 1345199); also: % is scaled to controls: 0 for no effect and ±100 for the full control effect; nearly all actives have a fitted effect of over 40% in size
Conditions: GBM patient neurospheres viability, ATP luminescence, 48 h; at 46.1 µM (top of the series); tumour line C
Inconclusive results are not listed.
Measured Property: activity, negative = cell killing (%)
Output spec: scalar in %, unitless text.

Here are 4 compounds together with their reported answers.
Cn1c(=O)c2[nH]c(Br)nc2n(C)c1=O -9.05
C/C=C/c1ccc(O)c(OC)c1 -3.58
O=C(O)CCNC(=O)c1ccccc1 -11.5
CC(C)Cc1ccc(CC(=O)O)cc1 9.2

Continue with the next compound.
Which measured activity, negative = cell killing value corresponds to `CC(=O)Nc1ccc(S(=O)(=O)Nc2ccc([N+](=O)[O-])cc2)cc1` ?
10.9

----------
System: CP215
Test: qHTS profiling for inhibitors of Plasmodium falciparum proliferation (AID 504749); also: nearly all actives have a fitted effect of over 60% in size
Details: P. falciparum in erythrocytes, SYBR Green DNA, 72 h; series mostly up to 28.7 µM
Inconclusive results are not listed. Active and inactive are the calls of the source. The call rests on the fitted dose curve; in most records, active means well fitted inhibition curve with a large enough effect; inconclusive means small, poorly fitted or top-dose-only effect; inactive means flat fitted curve, though single readings scatter.
Hello, when you answer, please use one of the following outcomes: true (1) (active), false (0) (inactive)

Check out these entries, answers already filled in.
Compound	Measured Target	Group Label
Cc1ccc(O)c([C@H](CCN(C(C)C)C(C)C)c2ccccc2)c1	CP215	true (1)
NC(N)=NCc1cccc(I)c1	CP215	false (0)

Lab log entry: `NCCNC(=O)c1ccc(Cl)cn1` — outcome as called in the assay?
false (0)

Please state the recorded outcome for this compound: `c1ccc(-c2nc[nH]c2-c2ccccc2)cc1`
false (0)

Which outcome was entered for the compound CCCCC(CC)COC(=O)/C=C/c1ccc(OC)cc1 (stereo unspecified) in this test?
false (0)

----------
System: CP185
Test: qHTS profiling for inhibitors of Plasmodium falciparum proliferation (AID 504749); also: nearly all actives have a fitted effect of over 60% in size
Conditions: P. falciparum in erythrocytes, SYBR Green DNA, 72 h; series mostly up to 28.7 µM
Inconclusive results are not listed. Active and inactive are the calls of the source. Calls come from the whole dose curve; as a rule, active = well fitted inhibition curve with a large enough effect; inconclusive = small, poorly fitted or top-dose-only effect; inactive = flat fitted curve, though single readings scatter.
Outcomes you can answer with include only these: active, inactive

Molecule	Group Label
Nc1ccc(S(=O)(=O)NCc2ccccc2)cc1	inactive
Nc1nc(N)c(-c2ccccc2)s1	inactive
CCc1ccc(C(=O)C(C)CN2CCCCC2)cc1 (centres undefined)	inactive
CN1CCC[C@@H]1CCO[C@](C)(c1ccccc1)c1ccc(Cl)cc1	inactive

Could you kindly confirm the outcome this assay logged for `CNCCc1ccccn1` ?
inactive

Which result was noted for this molecule in the test: `CC(=O)NO`
inactive

What was the test verdict on `CC(=O)Oc1ccc(C)cc1` ?
inactive

----------
System: Es-2
Test: Primary qHTS to identify gynecologic anti-cancer compounds using libraries of approved drugs and bioactive compounds (AID 1345084); also: % is scaled to controls: 0 for no effect and ±100 for the full control effect; nearly all actives have a fitted effect of over 55% in size
Conditions: Gynecologic cancer cell panel viability, ATPlite luminescence, 48 h; series mostly up to 57.5 µM
Records with an inconclusive call do not appear. Activity calls are given as the source filed them. The call rests on the fitted dose curve; in most records, active means well fitted cell-killing curve with a large enough effect; inconclusive means small, poorly fitted or top-dose-only effect, or effect the other way; inactive means flat fitted curve, though single readings scatter.
Result category, one only: YES (active), NO (inactive)

Per the assay record, what outcome was assigned to `CN(CCCN1c2ccccc2CCc2ccccc21)CC(=O)c1ccc(Cl)cc1` ?
NO

What did the test return for NC1CCN(c2nc3c(cc2F)c(=O)c(C(=O)O)cn3-c2ccc(F)cc2F)C1 (stereo not drawn) ?
NO

Please let me know the test result on file for `CC[C@]12CCCN3CCc4c(n(c5ccccc45)C(=O)C1)[C@@H]32` .
NO

Record request — test call for `CC(=O)O[C@]1(C(C)=O)CC[C@H]2[C@@H]3C=C(C)C4=CC(=O)CC[C@]4(C)[C@H]3CC[C@@]21C`
NO

So what was the verdict on OC1C(O)C(O)C(O)C(O)C1O (stereo not drawn) in this test?
NO

Dear all, I need the recorded test outcome for `O=C(O)CCC(=O)Nc1ccc(S(=O)(=O)Nc2nccs2)cc1` , thank you.
NO

Could you please tell me the result logged for `C[C@H]1[C@H]2CC[C@H]3[C@@H]4CC=C5C[C@@H](N(C)C)CC[C@]5(C)[C@H]4CC[C@]23CN1C` in this assay?
NO

Dear colleague, could you share the recorded outcome for `CCCCN1C[C@H](O)[C@@H](O)[C@H](O)[C@H]1CO` when you have a moment?
NO

What did the test return for `O=C(c1ccc(F)cc1)C1CCN(CCn2c(=S)[nH]c3ccccc3c2=O)CC1` ?
NO

Assay result, entry `CC(C)(C)NC[C@H](O)COc1cccc2c1CCCC2=O` — outcome?
NO

# fetch the recorded call for O=C(Nc1ccccc1)OCC(CN1CCCCC1)OC(=O)Nc1ccccc1 (stereo not drawn) here
NO

What call does the record list for `CC(C)(C)NC[C@H](O)COc1nsnc1N1CCOCC1` ?
NO

What did this assay record as the result for `CC(=O)Oc1ccc(C)cc1` ?
NO

Per the assay record, what outcome was assigned to CC(C)[N+](C)(C)CC(O)COc1cccc2ccccc12 (stereo not drawn) ?
NO

Outcome? `CCOc1ccccc1OCCN[C@H](C)Cc1ccc(OC)c(S(N)(=O)=O)c1`
NO
